Measured apparent KD of K4 kissing-loop reporter, listed per entry for reference.
Tested on: K4 kissing-loop RNA reporter;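 note: bound reporter read as fluorescence of individual clusters on recovered sequencing chips by microscopy, with normalized cluster intensities fitted with a binding model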
Assay: apparent KD of K4 kissing-loop reporter; higher = weaker reporter binding
Settings: Eterna round: R107; input ligand: none
Could you give me the number in nM? Just the number is fine.

[
  {
    "sequenceData": "GGCGCAGUGAUGUUGCGGGCCGAGAGUGAUACCAGCCGUAUUUGUGGCCCUUGGCAGCGCAGAACCAGUGAUGUUGGUUACUUGG [Same State Theophylline A GF 22]",
    "measuredParameter": "apparent KD of K4 kissing-loop reporter",
    "observedMeasurement": 423
  }
]

Identify the measured apparent KD of K4 kissing-loop reporter of CGCAGUGAUGUUGCGAGUAGCUACAGGGAAGGAGCGUGCUAGAGCACAGGUAGGUCGCCCACGCAGUGAUGUUGUGUUAAAGGGU [Exclusion Arginine A GF 12] for K4 kissing-loop RNA reporter.
123

Identify the measured apparent KD of K4 kissing-loop reporter of GUAUCGCUAGGAGGAUAUUUCAAUUUGACUCUUUGAGUUAAUACGGAGUGAUGUUCCGUUUUACGGAAAGAAGGCCUAGUGAUAC [FMN B 14] for K4 kissing-loop RNA reporter.
192

Identify the measured apparent KD of K4 kissing-loop reporter of GCUAUGGUAGGAAGGAGCGCUUAUUUAUUUUUAAGAGUGAUGUUCGUUAGUAGAUAUUUAAAGCAGGUAGGUCGCCUACUAUAGC [Arginine B K4 14] for K4 kissing-loop RNA reporter.
84

Identify the measured apparent KD of K4 kissing-loop reporter of UGUAUGUGAUUUGAUACCAGACCAGCUGGUGGAAACUGAGUGAUGUUCAGUUAGGUUUGGGUCCCUUGGCAGCAAAUCGCAUACU [KL-SSTheoB28] for K4 kissing-loop RNA reporter.
127

Identify the measured apparent KD of K4 kissing-loop reporter of CCCGUUGCGGCGGCCGCCACUGACUUAUUGAUUAGGUUGCCAGUGAUGUUGGCCACCGGUCAAUACAGGACCGGGCCAUAGCGGG [Ceisreatte] for K4 kissing-loop RNA reporter.
128
